- Test system: SR
- protocol_details: NCI tumour cell line growth inhibition, 48 h
The source made the active and inactive calls. Cut-off read from the data, not from the text of the source: active = GI50 up to about 1.1 µM and inactive = higher.
Outcome codes: active, inactive

>  <compound>
CC1C[C@]2(C)C(=S)Nc3ccccc3[C@@H]2Nc2ccccc21 (stereo not given in full)

>  <label_value>
inactive

$$$$
>  <compound>
CN(/N=C/c1cccc2cccnc12)c1ccc(Cl)cc1[N+](=O)[O-]

>  <label_value>
inactive

$$$$
>  <compound>
CN(C)CC1CCC(=C2CCCC2)C1=O (stereo not given)

>  <label_value>
inactive

$$$$
>  <compound>
COc1cc([C@@H]2c3cc4c(cc3C[C@@H]3COC(=O)C32)OCO4)cc(OC)c1O (stereo not given in full)

>  <label_value>
active

$$$$
>  <compound>
O=C(/C=C/c1ccc2c(c1)OCO2)c1ccc(O)cc1

>  <label_value>
inactive

$$$$
>  <compound>
COC(=O)CCC(NC(=S)N/N=C/c1ccco1)C(=O)OC (stereo not given)

>  <label_value>
inactive

$$$$
>  <compound>
O=C1/C(=C\c2ccc([N+](=O)[O-])cc2)Sc2scc(-c3ccc(O)c(O)c3)[n+]21

>  <label_value>
inactive

$$$$
>  <compound>
CC(=O)N1NC(c2ccccc2)=CC(=O)/C1=C/C(=O)c1ccccc1

>  <label_value>
inactive

$$$$
>  <compound>
CC(C)NC(=O)CCN(C(=O)O)S(=O)(=O)c1ccc(NC(=O)c2ccccc2)cc1

>  <label_value>
inactive

$$$$
>  <compound>
NC(=S)N/N=C\c1ccc(OCc2cccc(COc3ccc(/C=N/NC(N)=S)cc3)n2)cc1

>  <label_value>
inactive

$$$$

====

- Test system: U-251
- protocol_details: NCI tumour cell line growth inhibition, 48 h
Active and inactive are the calls of the source. No stated cut-off is given here; in the data, active = GI50 up to about 1.1 µM and inactive = higher. Non-standard residues stand in square brackets, D forms with d. Residues, ends and D or L forms follow the SMILES beside them. *: point of attachment. Ac5c = NC1(C(=O)O)CCCC1; Boc = CC(C)(C)OC(=O)*; tBu = CC(C)(C)*

>  <compound>
CC(C)[N+]([O-])(CCCNc1c2ccccc2nc2cccc([N+](=O)[O-])c12)C(C)C

>  <GI50>
< 0.0453 µM (active)

$$$$
>  <compound>
CC(C)CNC(=O)CCc1cccc2c1oc1c(CCN)cccc12

>  <GI50>
5.85 µM (inactive)

$$$$
>  <compound>
O=C(O)C(Cc1ccc2c(c1)CCC2)(Cc1ccc2c(c1)CCC2)C(=O)O

>  <GI50>
> 100 µM (inactive)

$$$$
>  <compound>
CC(OC(C)(C)C)C1NC(=O)C(CCCCNC(=O)OC(C)(C)C)NC(=O)C(Cc2c[nH]c3ccccc23)NC(=O)C(Cc2ccccc2)NC(=O)C2(CCCC2)NC(=O)C(Cc2ccccc2)NC1=O (centres undefined) (cyclo([Ac5c]FWK(Boc)T(tBu)F); configuration not given here)

>  <GI50>
15.8 µM (inactive)

$$$$
>  <compound>
CP(=O)(CCSc1ccccc1)c1ccccc1 (centres undefined)

>  <GI50>
> 100 µM (inactive)

$$$$
>  <compound>
O=C(c1ccc(Cl)cc1)C1OC12C(=O)Nc1c(Cl)cc(Cl)cc12 (centres undefined)

>  <GI50>
76.7 µM (inactive)

$$$$
>  <compound>
O=S(=O)(O)c1ccc(NN(c2c(O)ccc3ccccc23)S(=O)(=O)O)cc1

>  <GI50>
> 100 µM (inactive)

$$$$
>  <compound>
COC(=O)[C@H](Cc1ccccc1)NC(=O)/C(=C/C(C)C)NC(=O)[C@H](CCSC)NC=O

>  <GI50>
> 100 µM (inactive)

$$$$
>  <compound>
O=c1oc2ccccc2cc1-c1cn2ccccc2n1

>  <GI50>
2.33 µM (inactive)

$$$$

====

- Test system: HCC 2998
- protocol_details: NCI tumour cell line growth inhibition, 48 h
Active and inactive are the calls of the source. No stated cut-off is given here; in the data, active = GI50 up to about 1.1 µM and inactive = higher. Where a SMILES comes first, the peptide text is derived from it. [ ]: non-standard residue; d: D form. Phe(4-Cl) = N[CH](Cc1ccc(Cl)cc1)C(=O)O
// reported GI50 per item
measure: GI50

>  <compound>
N#CC(N)c1ccc(OCCCCCCCCCCOc2ccc(C(N)C#N)cc2)cc1 (stereo not drawn)

>  <measure>
GI50

>  <result>
> 100 µM (inactive)

$$$$
>  <compound>
CC(O)C(NC(=O)C(Cc1ccccc1)NC(=O)C(NC(=O)C(CCCCN)NC(=O)C(Cc1c[nH]c2ccccc12)NC(=O)C(Cc1ccc(O)cc1)NC(=O)C(Cc1ccc(Cl)cc1)NC(=O)C(N)Cc1ccccc1)C(C)O)C(N)=O (stereo not drawn) (H-F[Phe(4-Cl)]YWKTFT-NH2; configuration not given here)

>  <measure>
GI50

>  <result>
25.4 µM (inactive)

$$$$
>  <compound>
NC(=S)/N=C(/c1nc2ccc(Cl)cc2nc1O)C(O)c1ccccc1Cl (stereo not drawn)

>  <measure>
GI50

>  <result>
> 100 µM (inactive)

$$$$

====

- Tested on: SW-620
- protocol_details: NCI tumour cell line growth inhibition, 48 h
Calls of active or inactive are those of the source. No stated cut-off is given here; in the data, active = GI50 up to about 1.1 µM and inactive = higher.
measure: GI50

>  <compound>
O=c1oc2ccccc2cc1-c1cn2ccccc2n1

>  <measure>
GI50

>  <result>
10.4 µM (inactive)

$$$$
>  <compound>
CN(C(=O)C1CCCCCC1=O)c1ccccc1Cl (stereo not given)

>  <measure>
GI50

>  <result>
> 100 µM (inactive)

$$$$
>  <compound>
CC(C)[Si](OC1=CCCCCC12C(=O)N(C)c1ccccc12)(C(C)C)C(C)C (stereo not given)

>  <measure>
GI50

>  <result>
17.3 µM (inactive)

$$$$
>  <compound>
O=[N+]([O-])c1ccc(-c2ccc(-c3csc(Nc4ccccc4)n3)o2)cc1

>  <measure>
GI50

>  <result>
15.6 µM (inactive)

$$$$
>  <compound>
Cc1ccc(S(=O)(=O)N/C(=C\C=C\c2ccccc2)C(=O)C(C)(C)C)cc1

>  <measure>
GI50

>  <result>
> 100 µM (inactive)

$$$$

====

Recorded GI50 for the following compounds
- Tested on: SF-295
- protocol_details: NCI tumour cell line growth inhibition, 48 h
Activity calls are given as the source filed them. Cut-off read from the data, not from the text of the source: active = GI50 up to about 1.1 µM and inactive = higher.

>  <compound>
Cc1nc2sc3cccc(Cl)c3n2c(=O)c1/N=N/c1ccc(Cl)cc1

>  <GI50>
53.1 µM (inactive)

$$$$
>  <compound>
O=C1c2ccc(O)cc2OC(c2cc(O)c(O)c(O)c2)C1O (stereo not given) [DIHYDROBINETIN]

>  <GI50>
21.8 µM (inactive)

$$$$
>  <compound>
Nc1nc(NCC2(CO)CCC2)cc(=O)[nH]1

>  <GI50>
> 100 µM (inactive)

$$$$
>  <compound>
CC1CN(c2cc3c(cc2F)c(=O)c(C(=O)O)cn3-c2ccc(F)cn2)CC(C)N1 (stereo not given)

>  <GI50>
> 100 µM (inactive)

$$$$
>  <compound>
CCOC(=O)c1cc2cc3c4c(c2oc1=O)CCCN4CCC3

>  <GI50>
40.4 µM (inactive)

$$$$
>  <compound>
O=C(N/N=C\c1ccc2ccccc2c1)Nc1ccc([N+](=O)[O-])cc1

>  <GI50>
22.5 µM (inactive)

$$$$
>  <compound>
O=C1c2ccccc2C(Br)(Br)c2ccccc21

>  <GI50>
> 31.6 µM (inactive)

$$$$
>  <compound>
O=C1/C(=C\c2ccc([N+](=O)[O-])cc2)Sc2scc(-c3ccc(O)c(O)c3)[n+]21

>  <GI50>
12.5 µM (inactive)

$$$$
>  <compound>
Cc1cc(C)nc(NS(=O)(=O)c2ccc(NC(=O)c3cccc4c(Nc5ccc(S(N)(=O)=O)cc5)c5ccccc5nc34)cc2)n1

>  <GI50>
> 66.5 µM (inactive)

$$$$
>  <compound>
CC1(C)O[C@H]2OC(CO)C(N=[N+]=[N-])[C@H]2O1 (stereo not given in full)

>  <GI50>
> 100 µM (inactive)

$$$$

====

- Tested on: SN12C
- protocol_details: NCI tumour cell line growth inhibition, 48 h
Active and inactive are the calls of the source. No stated cut-off is given here; in the data, active = GI50 up to about 1.1 µM and inactive = higher.
Possible outcomes: Yes = active, No = inactive

>  <compound>
COc1ccc2c(c1)NC1(O)c3ccccc3C(=O)C21O (centres undefined)

>  <label_value>
No

$$$$
>  <compound>
O=C(N/N=C\c1ccc2ccccc2c1)Nc1ccc([N+](=O)[O-])cc1

>  <label_value>
No

$$$$
>  <compound>
CC1S(=O)(=O)OCCOS1(=O)=O

>  <label_value>
No

$$$$
>  <compound>
CC(=O)O[C@H](C[C@@H](C)[C@H]1C(=O)[C@H](O)[C@@]2(C)C3CC[C@H]4C(C)(C)[C@@H](OC5OCC(O)C(O)C5O)CC[C@@]45C[C@@]35CC[C@]12C)[C@@H]1OC1(C)C (some centres undefined)

>  <label_value>
No

$$$$
>  <compound>
CN(C)CC1(Cc2ccccc2)CC/C(=C\c2ccccc2)C1=O (centres undefined)

>  <label_value>
No

$$$$
>  <compound>
CC1CCCCCC(=O)c2c(O)cc(O)cc2CC(=O)O1 (centres undefined)

>  <label_value>
No

$$$$
>  <compound>
CCN(CC)CCC(=O)O[C@H]1CC[C@H](CC(C)[C@H]2CC(=O)C(C)C=C(C)[C@H](OC(=O)CCN(CC)CC)C(OC)C(=O)[C@@H](C)CC(C)/C=C/C=C/C=C(C)C(OC)CC3CC[C@H](C)[C@](O)(O3)C(=O)C(=O)N3CCCCC3C(=O)O2)CC1OC (some centres undefined)

>  <label_value>
Yes

$$$$
>  <compound>
O=C[C@@H](CO)O[C@H](C=O)c1c[nH]c(=O)[nH]c1=O

>  <label_value>
No

$$$$
>  <compound>
O=C(CC(=O)c1ccccc1)CC(O)(c1ccccc1)c1ccccc1

>  <label_value>
No

$$$$

Attribution: ChEMBL document CHEMBL1201862
